Molecular target: T1, ECF30_35
T1 chain: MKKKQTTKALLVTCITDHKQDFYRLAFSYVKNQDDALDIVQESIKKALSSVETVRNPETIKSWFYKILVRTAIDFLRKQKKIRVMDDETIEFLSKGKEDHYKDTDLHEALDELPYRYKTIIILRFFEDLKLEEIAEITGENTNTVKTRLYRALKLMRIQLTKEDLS
Measured Attribute: fold repression

INSERT INTO results (binder, measured_attribute, observed_measurement) VALUES
  ('AS31_34 (protein) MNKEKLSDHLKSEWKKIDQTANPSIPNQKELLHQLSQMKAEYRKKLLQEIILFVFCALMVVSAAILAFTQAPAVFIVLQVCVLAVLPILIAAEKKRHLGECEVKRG', 'fold repression', 1.68),
  ('AS11_987 (protein) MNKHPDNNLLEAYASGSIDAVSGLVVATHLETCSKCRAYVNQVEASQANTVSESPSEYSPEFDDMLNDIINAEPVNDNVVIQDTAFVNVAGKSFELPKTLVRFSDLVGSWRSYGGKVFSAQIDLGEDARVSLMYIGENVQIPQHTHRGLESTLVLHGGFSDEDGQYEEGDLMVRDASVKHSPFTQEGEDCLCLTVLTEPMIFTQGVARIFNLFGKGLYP', 'fold repression', 2.89),
  ('AS25_1645 (protein) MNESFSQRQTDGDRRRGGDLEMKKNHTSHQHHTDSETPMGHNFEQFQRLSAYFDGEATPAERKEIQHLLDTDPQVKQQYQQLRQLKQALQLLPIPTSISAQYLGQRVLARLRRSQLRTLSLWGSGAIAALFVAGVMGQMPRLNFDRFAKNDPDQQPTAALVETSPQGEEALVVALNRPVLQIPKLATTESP', 'fold repression', 3.43);
